measuredOn: T1, CD33M, full length human CD33 protein expressed on transfected cells (human, UniProt P20138 18-303)
T1 construct: also called full length CD33
protocolDetails: flow cytometry on cells transfected with CD33M; apparent Kd, one-site fit
pKd: −log10 of the molar value.

| binder | pKd |
| --- | --- |
| hzA07v4 sdAb (hzA07v4 VHH domain fused to human IgG1 xELL Fc region) (Fc fusion, VHH-Fc; no linker stated; also called hzA07v4-IgG1) EVQLVESGGGEVQPGGSLRLSCAASRSSGIDVMGWYRQAPGKERELVAEISGVGDTNYAASLADRFTVSRDNAKNTVYLQMSSLRAEDTAVYYCNAHSFLDLVGAWGQGTLVTVDKTHTCPPCPAPGGPSVFLFPPKPKDTLMISRTPEVTCVVVDVSHEDPEVKFNWYVDGVEVHNAKTKPREEQYNSTYRVVSVLTVLHQDWLNGKEYKCKVSNKALPAPIEKTISKAKGQPREPQVYTLPPSRDELTKNQVSLTCLVKGFYPSDIAVEWESNGQPENNYKTTPPVLDSDGSFFLYSKLTVDKSRWQQGNVFSCSVMHEALHNHYTQKSLSLSPGK | 7.25 |
| 1C7 sdAb (1C7 VHH domain fused to human IgG1 xELL Fc region) (Fc fusion, VHH-Fc; no linker stated; also called 1C7-IgG1) QVQLQQSGGGLVQAGGSLRLSCAASGRTFSGYIMGWFRQVPGKERELVARISGNNLSTEYGGSVKGRFTISRDSAKETMYLQMNSLKPEDTAIYYCAAEYDYSSGDFVYWGQGTQVTVDKTHTCPPCPAPGGPSVFLFPPKPKDTLMISRTPEVTCVVVDVSHEDPEVKFNWYVDGVEVHNAKTKPREEQYNSTYRVVSVLTVLHQDWLNGKEYKCKVSNKALPAPIEKTISKAKGQPREPQVYTLPPSRDELTKNQVSLTCLVKGFYPSDIAVEWESNGQPENNYKTTPPVLDSDGSFFLYSKLTVDKSRWQQGNVFSCSVMHEALHNHYTQKSLSLSPGK | 8.18 |
